test: GFP drop in mixed WT/humanized-ribosome E. coli culture – GFP/RFP fluorescence, OD600, single point, bacterial rRNA inhibitor project, primary screen (AID 720706); settings: E. coli WT GFP vs humanized-ribosome RFP mutants, 24 h; measured here: RFP humanized mutant strains, DMSO median 0, no signal -100, concentration not given here
Out of some 350,000 compounds screened, about 5,500 (1.6%) were called active. This excerpt belongs to a sample that is enriched for actives.
MEASURED PROPERTY: RFP signal change (%)
State just the number; it will be interpreted in %.

Sample answers from the record:
C[C@@H]1CN([C@H](C)CO)S(=O)(=O)c2ccc(C3=CCCC3)cc2O[C@H]1CN(C)Cc1ccccc1F :: -3.33
O=C(CSc1nnc(-c2ccco2)n1Cc1ccccc1)NC(=O)NCc1ccco1 :: 1.04
COc1ccc(NC(=O)Nc2ccc3c(c2)C(=O)N([C@@H](C)CO)C[C@@H](C)[C@@H](CN(C)Cc2ccncc2)OCCCC[C@@H](C)O3)cc1 :: 9.15

Task item: # input compound: O=C(NNC(=O)c1ccc2ccccc2c1)c1ccc(Cl)cc1 ; wanted: its RFP signal change
Reply: -2.59

Task item: # input compound: COc1ccccc1N1CCN(/N=C/c2ccc(O)cc2O)CC1 ; wanted: its RFP signal change
Reply: -2.29

Task item: # input compound: C[C@H]1CN([C@@H](C)CO)C(=O)c2cc(-c3ccncc3)cnc2O[C@@H]1CN(C)C(=O)C1CCCCC1 ; wanted: its RFP signal change
Reply: -3.44

Task item: # input compound: C=CCNc1nc(Nc2ccc(Cl)cc2)nc(OC)n1 ; wanted: its RFP signal change
Reply: -2.27

Task item: # input compound: CCC(=O)N1CC(=O)N2[C@H](CO)[C@@H](c3ccc(-c4ccc(C(=O)N(C)C)cc4)cc3)[C@@H]2C1 ; wanted: its RFP signal change
Reply: 0.455

Task item: # input compound: Cc1nc2ccccc2nc1N/N=C/c1ccc(O)cc1O ; wanted: its RFP signal change
Reply: 6.07

Task item: # input compound: Clc1ccc(Nc2ccc3ccccc3n2)cc1 ; wanted: its RFP signal change
Reply: -18

Task item: # input compound: O=C(O)Cc1ccc(NC(=O)Nc2cccc3ccccc23)cc1 ; wanted: its RFP signal change
Reply: -3.8

Task item: # input compound: CS(=O)(=O)N1CC2(C1)[C@H](c1ccccc1)[C@@H](CO)N2C(=O)c1ccccc1 ; wanted: its RFP signal change
Reply: -1.96

---

test: GFP drop in mixed WT/humanized-ribosome E. coli culture – GFP/RFP fluorescence, OD600, single point, bacterial rRNA inhibitor project, primary screen (AID 720706); conditions: E. coli WT GFP vs humanized-ribosome RFP mutants, 24 h, DMSO median 0, no signal -100
Among all 350,000 compounds or so, about 5,500 (1.6%) were called active.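 How the source made its calls: active means significant combined selectivity score with lowered wild-type GFP, culture density cut under 30%, mutant RFP and density less affected; inactive means any of these conditions unmet.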 This is one part of a sample in which actives are shown more often than they occur.
# output must be one of active, inactive

Completed entries (count: 3):
COc1cccc(C(=O)NCCSc2ccc(Br)cc2)c1 :: inactive
COc1cc(/C=C/C(=O)N2CCc3ccccc3C2)cc(OC)c1OC :: active
Cc1nn(C)c(C)c1S(=O)(=O)N1CCC(CO)(Cc2ccc(Cl)cc2)CC1 :: active

Below: the item to evaluate.
Task item: Kindly provide the recorded test outcome for the following compound: COc1ccccc1C#Cc1ccc2c(c1)O[C@H](CN(C)Cc1cccnc1)[C@@H](C)CN([C@H](C)CO)S2(=O)=O
Reply: inactive
